// AH time lookup, one value per entry
Test system: canine heart
Settings: 0.1 mg/kg i.v., 5 min, mean ± SE
Give a bare numeral; the unit ms is implied.

Q: // map COc1ccc(CCN(C)CCC[C@](C#N)(c2ccc(OC)c(OC)c2)C(C)C)cc1OC [R-verapamil, reference compound] to recorded AH time (system: canine heart)
Ans: 95

Q: Request: AH time, test system canine heart, entry COc1ccc(CCN(C)CCCC(C#N)(c2ccc(OC)c(OC)c2)C(C)C)cc1OC (racemic) [20/80S]
Ans: 112

Q: Checklist item: AH time tested on canine heart, entry COc1ccc(CCN(C)CCCC(C#N)(c2ccc(OC)c(OC)c2)C(C)C)cc1OC (racemic) [80/20S] , value?
Ans: 96

Q: Entry COc1ccc(CCN(C)CCCC(C#N)(c2ccc(OC)c(OC)c2)C(C)C)cc1OC (racemic) [90/10S] , system canine heart: what AH time was measured?
Ans: 89
